experimental_system: DNA dC->dU-editing enzyme APOBEC-3A (Homo sapiens) (UniProt P31941)
Sequence (P31941 whole entry, looked up): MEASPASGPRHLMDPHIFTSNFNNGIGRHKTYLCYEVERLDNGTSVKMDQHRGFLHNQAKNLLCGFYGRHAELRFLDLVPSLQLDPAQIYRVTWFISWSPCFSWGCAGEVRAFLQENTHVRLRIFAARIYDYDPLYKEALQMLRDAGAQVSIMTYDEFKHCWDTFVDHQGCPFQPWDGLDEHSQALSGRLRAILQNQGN
protocol_notes: blockers of A3A cytidine deamination on DNA – biochemical, FAM/TAMRA oligo cleavage fluorescence, selectivity assay for APOBEC3G inhibitor project, primary screen (AID 493011);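 also: plate controls were A3A with DMSO for no effect and wells lacking A3A enzyme for full effect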
settings: recombinant A3A, FAM/TAMRA ssDNA deamination fluorescence; at 20 µM; hits give high values
Screen size: about 330,000 compounds; about 1,400 (0.42%) were called active. The sample holds actives, similar compounds and a random draw of the others, so the mix is not that of the screen.

# compound, inhibition (%)
rows = [
    ("COCCN1C(=O)c2oc3c(C)cc(C)cc3c(=O)c2C1c1cccc(O)c1 (configuration not stated)", -3.14),
    ("O=C(NC1(C(F)(F)F)NC(=O)N(Cc2cccnc2)C1=O)c1ccccc1Cl (configuration not stated)", 0.863),
    ("COc1ccc(CC(=O)N2N=C(C)CC2(O)C(F)(F)F)cc1 (configuration not stated)", -1.7),
    ("CCN1C(=NCCc2cccnc2)N[C@@H](c2ccccc2)C(C(=O)OC)=C1C", 67.6),
    ("CCOc1ccc(CNC(=O)C2CC(=O)N(C3CCCC3)C2)cc1OC (configuration not stated)", -5.29),
    ("O=C(COC(=O)/C=C/c1ccc(Br)o1)Nc1cccc(S(=O)(=O)N2CCOCC2)c1", 16.5),
    ("COc1ccc(S(=O)(=O)NCCCCOc2ccc(Cl)cc2)cc1", -0.023),
    ("CCn1c(SCC(=O)Nc2ccc3c(c2)OCCO3)nnc1-c1ccncc1", -2.5),
    ("CCn1c(CNC(=O)c2ccco2)nnc1SCC(=O)Nc1cccc(F)c1", 0.913),
    ("CN(C)C(=O)Cn1c(=O)n(S(=O)(=O)c2ccccc2)c2ccccc21", 0.322),
    ("CCCn1c(SCC(=O)N2CCc3ccccc32)nnc1-c1ccncc1", -1.68),
    ("CCN(Cc1ccccc1)C(=O)CN1C(=S)NC(C)(C)CC1C (configuration not stated)", -4.37),
    ("CC(=O)c1ccc(N=C2SCCCN2C(=O)C2CCCCC2)cc1", 4.36),
    ("CCc1c(C)nc2ncnn2c1N1CCC(C(=O)NCc2ccc3c(c2)OCO3)CC1", 2.23),
    ("O=[N+]([O-])c1ccc(N2CCN(CC(O)COc3ccccc3)CC2)cc1 (configuration not stated)", 0.14),
    ("CCC(C)c1ccc(NC(=S)N2CCCC2)cc1 (configuration not stated)", -3.82),
    ("O=c1c2ccccc2c(-c2ccccc2)nn1-c1ccccn1", 0.978),
    ("COCCCn1c(SCC(=O)Nc2ccccc2)nnc1-c1ccncc1", 0.275),
    ("C[N+](C)(C)CCNC(=O)c1cc[n+](Cc2ccccc2)c(/C=N/O)c1", 77.9),
    ("Cc1ccc(CNC(=O)c2ccc(CS(=O)Cc3cccc(Cl)c3)o2)cc1 (configuration not stated)", -4.67),
    ("Cc1ccc(-c2nc(C#N)c(NCCCn3ccnc3)o2)cc1", 0.374),
    ("CCCn1nnnc1NCc1ccc(OC)cc1", -5.24),
    ("C[N+]1(CCNC(=O)/C=N/O)CCCCC1", 54.1),
    ("COc1cccc(NC(C)=[N+](C)CCNS(=O)(=O)c2ccc(Cl)cc2)c1", 52.2),
    ("C/C(Cn1nnc2ccccc21)=N\\OC(=O)c1cc(F)c(F)cc1Cl", -2.44),
    ("C[N+]1(CC(O)COc2ccccc2)CCN(C(=O)c2ccc([N+](=O)[O-])cc2)CC1 (configuration not stated)", 67.8),
    ("Cn1nnnc1NCc1ccc(Cl)c(Cl)c1", 1.46),
]
